Test system: human SMAD7 mRNA
Assay: Antisense inhibition of human SMAD7 mRNA expression in Hep3B cells by 3-10-3 cEt gapmers, 10,000 nM, electroporation (Example 2)
Assay type: cell-based
Details: Hep3B cells, electroporation with 10,000 nM antisense oligonucleotide, approximately 24 hours, SMAD7 mRNA by RT-PCR (RTS5062), relative to untreated control cells
Strand notation (5' to 3'): a small letter for the sugar, then the base; units joined by * are phosphorothioate-linked, units joined directly phosphodiester-linked; [ ] holds rarer units or linkages, { } end groups; capitals alone tell only the bases. k = constrained ethyl (cEt); [5mC] = 5-methylcytosine; d = 2'-deoxy (DNA)
Exercise: state measured % Inhibition for each of the substances provided.
Give bare numbers, in %.

Below, 4 substances whose answers are already recorded.
| substance | readout_name | reported_result |
| --- | --- | --- |
| 830117 (k[5mC]*k[5mC]*kA*d[5mC]*d[5mC]*d[5mC]*dT*dA*dA*dA*d[5mC]*dT*dG*kA*kG*k[5mC]; antisense) [compound 830117] | % Inhibition | 5 |
| 798879 (kA*k[5mC]*kG*dG*d[5mC]*dT*dG*d[5mC]*dT*dG*d[5mC]*dA*dT*kA*kA*kA; antisense) [compound 798879] | % Inhibition | 57 |
| 830162 (antisense kA*k[5mC]*kA*dA*dG*dG*dT*dG*dA*dA*dA*dG*dT*kT*kA*kT) [compound 830162] | % Inhibition | 20 |
| 798883 (kT*kA*kA*dA*dG*d[5mC]*d[5mC]*d[5mC]*dG*dT*d[5mC]*d[5mC]*dA*k[5mC]*kG*kG; antisense) [compound 798883] | % Inhibition | 0 |

List the reported % Inhibition of each substance below.
1. 772572 (antisense kA*kT*k[5mC]*dT*dT*d[5mC]*d[5mC]*d[5mC]*dG*dT*dA*dA*dG*kA*kT*kT) [compound 772572]
2. 800085 (antisense kA*kG*k[5mC]*dA*dG*d[5mC]*d[5mC]*d[5mC]*dT*dG*dT*dA*d[5mC]*kA*k[5mC]*kA) [compound 800085]
3. 798695 (antisense kT*kG*k[5mC]*dG*d[5mC]*d[5mC]*d[5mC]*dT*d[5mC]*d[5mC]*dT*d[5mC]*d[5mC]*kT*k[5mC]*kG) [compound 798695]
4. 800079 (antisense kT*kA*k[5mC]*d[5mC]*dT*dT*dA*dA*d[5mC]*dA*dA*dA*dG*k[5mC]*kT*kT) [compound 800079]
5. 830148 (antisense kG*kG*kA*d[5mC]*dT*dG*dG*dT*d[5mC]*dT*dT*d[5mC]*dA*k[5mC]*k[5mC]*kA) [compound 830148]
6. 799926 (antisense k[5mC]*k[5mC]*k[5mC]*dA*dA*dG*d[5mC]*d[5mC]*dT*dA*d[5mC]*dA*dT*kA*kT*kT) [compound 799926]

Result:
1. 0
2. 37
3. 35
4. 61
5. 19
6. 17

Dear reader, for each entry below, please note its % Inhibition.
1. 798920 (kG*k[5mC]*k[5mC]*dT*dG*d[5mC]*dT*d[5mC]*dA*dG*d[5mC]*dT*d[5mC]*kA*k[5mC]*kG; antisense) [compound 798920]
2. 800009 (kT*kG*k[5mC]*dT*d[5mC]*dA*dT*dG*dA*dA*dT*dG*dA*kA*k[5mC]*kA; antisense) [compound 800009]
3. 799351 (kT*kT*kT*dA*dG*d[5mC]*dT*dG*dT*d[5mC]*dA*dG*dA*kT*kA*kA; antisense) [compound 799351]
4. 799374 (antisense kT*kT*kG*d[5mC]*dA*d[5mC]*d[5mC]*dT*dT*dT*dT*dT*dA*kA*kA*k[5mC]) [compound 799374]

Result:
1: 58; 2: 51; 3: 31; 4: 30

Hi, could you look up % Inhibition for each item in my list?
1. 798904 (kT*kT*kG*dA*dA*dG*dA*dT*dG*dA*d[5mC]*d[5mC]*dT*k[5mC]*kT*kA; antisense) [compound 798904]
2. 799984 (kA*k[5mC]*kA*dT*d[5mC]*dA*d[5mC]*d[5mC]*dA*d[5mC]*dG*d[5mC]*d[5mC]*kT*k[5mC]*kG; antisense) [compound 799984]
3. 798915 (kT*k[5mC]*kT*dG*dT*d[5mC]*d[5mC]*d[5mC]*d[5mC]*dT*d[5mC]*d[5mC]*dG*k[5mC]*kA*k[5mC]; antisense) [compound 798915]
4. 800025 (kA*kG*kT*dA*d[5mC]*dA*dA*dG*dG*dA*d[5mC]*dT*dA*kA*kG*kG; antisense) [compound 800025]
5. 830060 (kT*kA*k[5mC]*d[5mC]*dA*d[5mC]*d[5mC]*d[5mC]*d[5mC]*dT*dG*dT*dG*kA*kA*kG; antisense) [compound 830060]

Result:
[23, 61, 7, 65, 8]

Okay, here is my list. What is % Inhibition for each of these?
1. 799890 (antisense k[5mC]*kA*kT*dT*dA*dA*dG*d[5mC]*d[5mC]*dA*dA*dT*dT*kT*kT*k[5mC]) [compound 799890]
2. 790476 (kT*kT*k[5mC]*dT*dT*dG*dA*dG*d[5mC]*dA*d[5mC]*d[5mC]*dG*kA*kG*kT; antisense) [compound 790476]

Result:
[41, 67]

Below are 3 substances. Give each one its % Inhibition.
1. 830156 (antisense k[5mC]*kT*kG*dT*dG*d[5mC]*d[5mC]*dT*d[5mC]*dA*dG*d[5mC]*dA*kG*kT*kT) [compound 830156]
2. 790497 (kG*kT*kT*d[5mC]*dG*d[5mC]*dA*dG*dA*dG*dT*d[5mC]*dG*kG*k[5mC]*kT; antisense) [compound 790497]
3. 798736 (antisense kG*k[5mC]*kG*d[5mC]*d[5mC]*d[5mC]*d[5mC]*d[5mC]*dG*dG*d[5mC]*d[5mC]*dG*k[5mC]*kG*k[5mC]) [compound 798736]

Result:
48
23
0
